Source of measurements: patent US8058243B2

System: murine neural precursor cells (neurosphere cultures)
Procedure details: HTS of LOPAC library against secondary neurosphere cultures, MTT proliferation assay at 3 μM, day 7 (z score, P value)
Assay type: cell-based, mouse
Reported conditions: LOPAC primary screen, neurosphere MTT proliferation, 3 μM, day 7
Counter-ions that a name gives are not always drawn.
The following ranges of Z score define the classes used here: range 1: < -2; range 2: ≥ -2 and < -0.05; range 3: ≥ -0.05

## Input Lab note: which band did C[N+](C)(C)CCOC(=O)CCC(=O)OCC[N+](C)(C)C [Succinylcholine chloride] land in?
## Output range 2

## Input Could you do the same for CCCN1CCOC2c3cc(O)ccc3OCC21.Cl (racemic) [(±)-PD 128,907 hydrochloride] , please?
## Output range 3

## Input Could you do the same for C=C[C@H]1C[N@@]2CC[C@H]1C[C@H]2[C@H](O)c1ccnc2ccc(OC)cc12 [Quinine sulfate] , please?
## Output range 2

## Input Could you do the same for N.S=C(S)N1CCCC1 [Ammonium pyrrolidinedithiocarbamate] , please?
## Output range 2

## Input Could you do the same for CCCCc1ccc(C(=O)O)nc1 [Fusaric acid] , please?
## Output range 2

## Input Could you do the same for CN[C@@H]1C[C@@H](c2ccc(Cl)c(Cl)c2)c2ccccc21 [Indatraline hydrochloride] , please?
## Output range 2

## Input Could you do the same for CCNC(=O)[C@H]1O[C@@H](n2cnc3c(N)ncnc32)[C@H](O)[C@@H]1O [5′-N-Ethylcarboxamidoadenosine] , please?
## Output range 1

## Input Could you do the same for Cl.Nc1cc(Cl)c(N=C2NCCN2)c(Cl)c1 [p-Aminoclonidine hydrochloride] , please?
## Output range 3

## Input Could you do the same for O=C(O)c1nn(Cc2ccc(Cl)cc2Cl)c2ccccc12 [Lonidamine] , please?
## Output range 3

## Input Could you do the same for NC(=Nc1ccccc1)NC(=O)c1nc(Cl)c(N)nc1N [Phenamil methanesulfonate] , please?
## Output range 3

## Input Could you do the same for CCOC(=O)[N-]c1cn(N2CCOCC2)n[o+]1 [Molsidomine] , please?
## Output range 3

## Input Could you do the same for CCC(NC(C)C)C(O)c1ccc(O)c(O)c1.CS(=O)(=O)O (centres unmarked) [Isotharine mesylate] , please?
## Output range 2

## Input Could you do the same for Nc1nc(N)c2nc(-c3ccccc3)c(N)nc2n1 [Triamterene] , please?
## Output range 1

## Input Could you do the same for N[C@H](C(=O)O)c1cc(O)no1 (racemic) [(±)-Ibotenic acid] , please?
## Output range 2

## Input Could you do the same for COCCOC(=O)C1=C(C)NC(C)=C(C(=O)OC(C)C)C1c1cccc([N+](=O)[O-])c1 (centres unmarked) [Nimodipine] , please?
## Output range 2

## Input Could you do the same for COc1c2c(nc3ccccc13)OC(C(C)(O)CO)C2 (centres unmarked) [Dubinidine] , please?
## Output range 1

## Input Could you do the same for O=C(O)/C=C\C(=O)O.O=[N+]([O-])c1ccc2nc(N3CCNCC3)ccc2c1 [Quipazine, 6-nitro-, maleate] , please?
## Output range 3

## Input Could you do the same for CC(=O)c1c(O)c(C)c(O)c(Cc2c(O)c3c(c(C(=O)/C=C/c4ccccc4)c2O)OC(C)(C)C=C3)c1O [Rottlerin] , please?
## Output range 3

## Input Could you do the same for COc1cc(CC(=O)O)ccc1O [4-Hydroxy-3-methoxyphenylacetic acid] , please?
## Output range 2

## Input Could you do the same for NC(=O)C1=CN([C@@H]2O[C@H](COP(=O)([O-])OP(=O)([O-])OC[C@H]3O[C@@H](n4cnc5c(N)ncnc54)[C@H](OP(=O)([O-])[O-])[C@@H]3O)[C@@H](O)[C@H]2O)C=CC1.[Na+].[Na+].[Na+].[Na+] [NADPH tetrasodium] , please?
## Output range 3

## Input Could you do the same for Cc1nc2sccn2c(=O)c1CCN1CCC(=C(c2ccc(F)cc2)c2ccc(F)cc2)CC1 [Ritanserin] , please?
## Output range 2

## Input Could you do the same for Cl.O=c1cc(N2CCOCC2)oc2c(-c3ccccc3)cccc12 [LY-294,002 hydrochloride] , please?
## Output range 2

## Input Could you do the same for O=c1c(-c2ccc(O)cc2)coc2cc(O)ccc12 [Daidzein] , please?
## Output range 1

## Input Could you do the same for CNC(=O)[C@H]1O[C@@H](n2cnc3c(N)ncnc32)[C@H](O)[C@@H]1O [5′-N-Methyl carboxamidoadenosine] , please?
## Output range 1

## Input Could you do the same for CC[C@@H](CO)NC(=O)[C@@H]1C=C2c3cccc4c3c(cn4C)C[C@H]2N(C)C1 [Methysergide maleate] , please?
## Output range 3

## Input Could you do the same for Nc1nc2[nH]c(=O)cnc2c(=O)[nH]1 [Isoxanthopterin] , please?
## Output range 3

## Input Could you do the same for C[C@H](N)CN1CCc2ccc(Br)cc21.C[C@H](N)CN1CCc2ccc(Br)cc21.O=C(O)/C=C/C(=O)O [VER-3323 hemifumarate salt] , please?
## Output range 2

## Input Could you do the same for CN1C2CCC1CC(OC(=O)c1cc(Cl)cc(Cl)c1)C2 (centres unmarked) [ML-9] , please?
## Output range 1

## Input Could you do the same for O=C(O)CCC(=O)N1CCC[C@H]1C(=O)O [N-Succinyl-L-proline] , please?
## Output range 3

## Input Could you do the same for CCn1cnc2c(Nc3cccc(Cl)c3)nc(N[C@@H]3CCCC[C@@H]3N)nc21.Cl [CGP-74514A hydrochloride] , please?
## Output range 1

## Input Could you do the same for Cl.Cl.c1ccc(CCCN2CCN(CCOC(c3ccccc3)c3ccccc3)CC2)cc1 [GBR-12935 dihydrochloride] , please?
## Output range 1

## Input Could you do the same for Br.Oc1cc2c(c(Cl)c1O)CCNCC2c1ccccc1 (racemic) [(±)-6-Chloro-PB hydrobromide] , please?
## Output range 1
